Recorded values, source the RNAGym collection of RNA variant scans (doi:10.7554/elife.80360).

# maps each entry to its self-cleavage
B1: HDV Ribozyme (parent)
chain: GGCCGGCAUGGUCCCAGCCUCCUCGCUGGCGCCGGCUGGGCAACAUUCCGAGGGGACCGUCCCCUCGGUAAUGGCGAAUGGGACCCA

Variants of: B1
assayOverview: self-cleavage, relative activity (ratio to wild type); higher = more cleavage; co-transcriptional

// known answers, use as guide
C26A A45C    0.554
U9G A56C    0.462
G11C A16G    0.277
G17C G29A    0.0437
U20C G39C    0.185

The measured self-cleavage associated with A8G C63U reads 1.26

The measured self-cleavage associated with G34C U46A reads 0.158
